molecular target: ICE (Homo sapiens, UniProt P29466); experiment: Enzyme assay with UV-visible substrate (Succinyl-Tyr-Val-Ala-Asp-pNitroanilide); type: biochemical; settings: Example 6 table
Non-standard residues stand in square brackets, D forms with d. Residues, ends and D or L forms follow the SMILES beside them. *: point of attachment. Hyp = O=C(O)[C@@H]1C[C@@H](O)CN1; Bn = c1ccc(C*)cc1
READOUT_TYPE: Ki (nM)

O=C(O)C[C@H](NC(=O)[C@@H]1CCCN2C(=O)CC[C@H](NC(=O)CCc3ccccc3)C(=O)N12)C(=O)CSCc1ccccc1Cl [Compound 125b]	60
COc1cccc2nc(C(=O)[C@H](CC(=O)O)NC(=O)[C@@H]3C[C@@H](Oc4ccccc4)CN3C(C)=O)oc12 [Compound 87]	7200
O=C[C@H](CC(=O)O)NC(=O)[C@@H]1CS[C@@H]2CCC[C@H](NC(=O)CCc3ccccc3)C(=O)N21 [Compound 141]	670
COc1cccc2nc(C(=O)[C@H](CC(=O)O)NC(=O)Cn3c(Cc4ccccc4)ccc(NC(=O)CCc4ccccc4)c3=O)oc12 [Compound 127]	390
O=C(O)C[C@H](NC(=O)[C@@H]1CCc2ncc(NC(=O)CCc3ccccc3)c(=O)n21)C(=O)c1ncc(-c2c(Cl)cccc2Cl)o1 [Compound 102c]	680
CC(=O)N[C@@H](Cc1ccc(O)cc1)C(=O)N[C@H](C(=O)N1C[C@H](Oc2ccccc2)C[C@H]1C(=O)N[C@@H](CC(=O)O)C(=O)c1ncc(-c2c(Cl)cccc2Cl)o1)C(C)C [Compound 156]	1
O=C(O)C[C@H](NC(=O)[C@@H]1CCCN1C(=O)c1ncc(CCCc2ccccc2)[nH]1)C(=O)c1ncc(-c2c(Cl)cccc2Cl)o1 [Compound 157]	260
CC(C)[C@H](NC(=O)OCc1ccccc1)C(=O)N[C@@H](C)C(=O)N[C@@H](CC(=O)O)C(=O)c1ncc(-c2ccccc2C(F)(F)F)o1 [Compound 144]	320

[A] O=C[C@H](CC(=O)O)NC(=O)CN1C(=O)[C@@H](NC(=O)CCc2ccccc2)CN(Cc2ccccc2)c2ccccc21 [Compound 106c]
[B] CC(=O)N[C@H](C(=O)N1C[C@H](Oc2ccccc2)C[C@H]1C(=O)N[C@@H](CC(=O)O)C(=O)c1ncc(-c2c(Cl)cccc2Cl)o1)C(C)C [Compound 160]
[C] O=C(O)C[C@H](NC(=O)Cn1c(Cc2ccccc2)ccc(NC(=O)CCc2ccccc2)c1=O)C(=O)c1ncc(-c2c(Cl)cccc2Cl)s1 [Compound 91]
[D] CC(C)[C@H](NC(=O)OCc1ccccc1)C(=O)N[C@@H](C)C(=O)NC(CC(=O)O)C(=O)c1ncc(-c2ccccc2)[nH]1 (stereo partly shown) [Compound 150]
Query: Endpoint returns the given molecules ordered by ascending Ki. Please list the labels according to the requested order.
Result: B, C, A, D
(B: 145 nM, C: 260 nM, A: 3800 nM, D: 10000 nM)

[I] COc1cccc2nc(C(=O)[C@H](CC(=O)O)NC(=O)CN3C(=O)[C@@H](NC(=O)CCc4ccccc4)CN(C(=O)CCc4ccccc4)c4ccccc43)oc12 [Compound 108b]
[II] CC(=O)N[C@@H](Cc1ccc(O)cc1)C(=O)N[C@H](C(=O)N[C@@H](C)C(=O)N[C@@H](CC(=O)O)C(=O)c1ncc(-c2c(Cl)cccc2Cl)s1)C(C)C [Compound 154]
Query: Which is greater in Ki, the first item I or the second item II ? Response format: the label of the selected entry.
Result: I
(I: 400 nM, II: 42 nM)

[P] COc1cccc2oc(C(=O)[C@H](CC(=O)O)NC(=O)[C@@H]3CCCN4C(=O)CC[C@H](NC(=O)CCc5ccccc5)C(=O)N34)nc12 [Compound 135b]
[Q] CC(=O)N[C@H](C(=O)N1C[C@H](OCc2ccccc2)C[C@H]1C(=O)N[C@H](C=O)CC(=O)O)C(C)C [Compound 158] (Ac-Val-[Hyp](Bn)-Asp-aldehyde)
Query: Between the entries labeled P and Q , whose measured Ki is lower? Respond using the label that marks the chosen record.
Result: P

* * *

target: ICE (Homo sapiens); experiment: Enzyme assay with UV-visible substrate (Succinyl-Tyr-Val-Ala-Asp-pNitroanilide); assay type: biochemical; conditions: Example 2 table
pKi: −log10 of the molar value. Non-standard residues stand in square brackets, D forms with d. Residues, ends and D or L forms follow the SMILES beside them. Tic = O=C(O)[C@@H]1Cc2ccccc2CN1; Pip = O=C(O)[C@@H]1CCCCN1
READOUT_TYPE: pKi

CC(=O)N[C@@H](Cc1ccc(O)cc1)C(=O)N[C@H](C(=O)N1CCCC[C@H]1C(=O)N[C@H](C=O)CC(=O)O)C(C)C [H] (Ac-YV[Pip]D-aldehyde)	7.64

[a] CC(=O)N[C@@H](Cc1ccc(O)cc1)C(=O)N[C@H](C(=O)N1Cc2ccccc2C[C@H]1C(=O)N[C@H](C=O)CC(=O)O)C(C)C [L] (Ac-YV[Tic]D-aldehyde)
[b] C[C@H](NC(=O)c1cnc(CCc2ccc(C(F)(F)F)cc2)[nH]1)C(=O)N[C@H](C=O)CC(=O)O [Compound 33b]
[c] O=C[C@H](CC(=O)O)NC(=O)Cn1cccc(NC(=O)CCc2ccccc2)c1=O [Compound 54g]
Query: Please list the entries, largest pKi first. # format: label list in the order the request specifies
Result: a, c, b
(a: 7.85, c: 5.32, b: 5.00)

* * *

Molecular target: ICE (Homo sapiens, UniProt P29466)
Sequence (P29466 120-297 limits assumed): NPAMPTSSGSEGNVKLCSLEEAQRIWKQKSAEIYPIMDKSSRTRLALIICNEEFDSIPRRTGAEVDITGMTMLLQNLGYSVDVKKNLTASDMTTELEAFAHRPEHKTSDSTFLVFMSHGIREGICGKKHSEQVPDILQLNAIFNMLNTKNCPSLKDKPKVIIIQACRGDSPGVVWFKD
Sequence (P29466 317-404 limits assumed): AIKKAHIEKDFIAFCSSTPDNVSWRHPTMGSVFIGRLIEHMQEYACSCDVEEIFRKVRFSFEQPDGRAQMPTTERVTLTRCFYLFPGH
Assay: Enzyme assay with UV-visible substrate (Succinyl-Tyr-Val-Ala-Asp-pNitroanilide)
Format: biochemical
Conditions: Example 6 table
Counter-ions that a name gives are not always drawn.
READOUT_TYPE: Ki (nM)

Some solved entries appear below for comparison.
CS(=O)(=O)N[C@H]1CCC(=O)N2CCC[C@@H](C(=O)N[C@H](C=O)CC(=O)O)N2C1=O [Compound 139]	350
O=C[C@H](CC(=O)O)NC(=O)CN1CCN(Cc2ccccc2)C[C@H](NC(=O)OCc2ccccc2)C1=O [Compound 114b, trifluoroacetic acid salt]	3700

[P] COc1cccc2nc(C(=O)[C@H](CC(=O)O)NC(=O)[C@@H]3CCCN4C(=O)CC[C@H](NC(=O)CCc5ccccc5)C(=O)N34)oc12 [Compound 135a]
[Q] O=C[C@H](CC(=O)O)NC(=O)[C@@H]1CCCN2C(=O)C[C@@H](NC(=O)CCc3ccccc3)C(=O)N12 [Compound 132b]
Query: Which entry shows the lesser value of Ki here, P or Q ? Label of pick, please.
Result: P
(P: 90 nM, Q: 12500 nM)

[1] COc1cccc2nc(C(=O)[C@H](CC(=O)O)NC(=O)[C@@H]3C[C@@H](Oc4ccccc4)CN3C(=O)[C@@H](NC(C)=O)C(C)C)oc12 [Compound 86]
[2] COc1cccc2nc(C(=O)[C@H](CC(=O)O)NC(=O)[C@@H]3C[C@@H](Oc4ccccc4)CN3C(=O)[C@@H](NC(=O)[C@H](Cc3ccc(O)cc3)NC(C)=O)C(C)C)oc12 [Compound 159]
Query: When 1 and 2 are compared, which has the higher number for Ki? Give the chosen item's label as your response.
Result: 1
(1: 175 nM, 2: 1.7 nM)

* * *

READOUT_TYPE: melting point

CCCCc1ccc(NC(=O)CCc2ccccc2)c(=O)n1CC(=O)N[C@H](C=O)CC(=O)O [Compound 54d]	120 to 125 °C
O=C[C@H](CC(=O)O)NC(=O)[C@@H]1CCCN2CCC[C@H](NC(=O)CCc3ccccc3)C(=O)N12 [Compound 47b]	87 to 90 °C

Per the records, this molecule ( C[C@H](NC(=O)c1ncc(CCc2ccccc2)[nH]1)C(=O)N[C@H](C=O)CC(=O)O [Compound 20c] ) has melting point equal to 102 to 104 °C

GET /value?item= O=C[C@H](CC(=O)O)NC(=O)Cn1c(Cc2ccccc2)ccc(NS(=O)(=O)CCc2ccccc2)c1=O [Compound 54j] &field=melting point returns 102 to 105 °C

Reported melting point of O=C[C@H](CC(=O)O)NC(=O)Cn1cccc(NC(=O)CCc2ccccc2)c1=O [Compound 54g] : 140 to 145 °C (dec.)

Measured melting point, Cc1ccc(NC(=O)CCc2ccccc2)c(=O)n1CC(=O)N[C@H](C=O)CC(=O)O [Compound 54e] : 129 to 138 °C

The measured melting point associated with O=C[C@H](CC(=O)O)NC(=O)[C@@H]1CCCN1C(=O)c1nc(CCCc2ccccc2)c[nH]1 [Compound 21d] reads 91 to 94 °C

For reference, reported melting point for O=C(O)C[C@H](NC(=O)[C@@H]1CCCN2C(=O)CC[C@H](NC(=O)CCc3ccccc3)C(=O)N12)C(=O)CSCc1ccccc1Cl [Compound 125b] stands at 76 to 80 °C

Memo: COc1ccc(CCCc2c[nH]c(C(=O)N3CCC[C@H]3C(=O)N[C@H](C=O)CC(=O)O)n2)cc1 [Compound 21e] , reported melting point: 101 to 105 °C

Just so you know, measured melting point for C[C@H](NC(=O)c1cnc(CCc2ccc(C(F)(F)F)cc2)[nH]1)C(=O)N[C@H](C=O)CC(=O)O [Compound 33b] came out at 120 to 124 °C

The reported melting point of the molecule O=C[C@H](CC(=O)O)NC(=O)[C@@H]1CCCN1C(=O)c1nc(CCc2ccccc2)c[nH]1 [Compound 21c] was 101 to 103 °C

Value of melting point reported for the molecule C[C@H](NC(=O)c1ccc(Cc2ccccc2)[nH]1)C(=O)N[C@H](C=O)CC(=O)O [Compound 36b] is 109 to 112 °C

GET /value?item= CC(=O)N[C@@H](Cc1ccc(O)cc1)C(=O)N[C@H](C(=O)N[C@@H](C)C(=O)N[C@H](CC(=O)O)C(=O)COCc1c(Cl)cccc1Cl)C(C)C (mixture of isomers) [Compound 84b] &field=melting point returns 165 to 168 °C

Value of melting point reported for the molecule O=C(O)CC(NC(=O)Cn1c(Cc2ccccc2)ccc(NC(=O)CCc2ccccc2)c1=O)C(=O)COC(=O)c1c(Cl)cccc1Cl (centres unmarked) [Compound 57b] is 116 to 120 °C (dec.)

Input O=C[C@H](CC(=O)O)NC(=O)[C@@H]1CCCN1C(=O)c1nc(CCCc2ccc(O)cc2)c[nH]1 [Compound 21f] . Output melting point: 114 to 118 °C

Measured melting point of O=C[C@H](CC(=O)O)NC(=O)Cn1c(Cc2ccccc2)ccc(NC(=O)OCCc2ccccc2)c1=O [Compound 54k] : 84 to 86 °C

Documented melting point of C[C@H](NC(=O)c1nc(Cc2ccccc2)c[nH]1)C(=O)N[C@H](C=O)CC(=O)O [Compound 20b] : 113 to 115 °C
